Would you mind telling me the reported % stimulation of the GABA currents (100 μM) of each entry?
Molecular target: α1β2γ2 subtype of the GABA receptor (Rattus norvegicus, UniProt P18508+P62813+P63138)
Construct: expressed in transfected cells; host or cells: Xenopus laevis oocytes (cRNA injection)
Sequence (P62813 28-455): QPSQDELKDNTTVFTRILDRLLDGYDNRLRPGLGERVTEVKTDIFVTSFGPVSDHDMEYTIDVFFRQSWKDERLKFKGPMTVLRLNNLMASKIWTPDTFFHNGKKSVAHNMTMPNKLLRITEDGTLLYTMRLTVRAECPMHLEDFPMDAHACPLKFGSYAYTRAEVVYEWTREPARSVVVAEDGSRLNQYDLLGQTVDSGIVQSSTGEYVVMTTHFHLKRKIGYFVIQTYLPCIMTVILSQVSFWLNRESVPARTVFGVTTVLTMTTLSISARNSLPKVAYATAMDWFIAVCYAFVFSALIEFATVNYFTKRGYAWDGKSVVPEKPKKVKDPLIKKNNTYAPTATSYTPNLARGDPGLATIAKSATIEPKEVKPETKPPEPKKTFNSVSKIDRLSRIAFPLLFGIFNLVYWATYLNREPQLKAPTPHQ
Sequence (P63138 25-474 limits assumed): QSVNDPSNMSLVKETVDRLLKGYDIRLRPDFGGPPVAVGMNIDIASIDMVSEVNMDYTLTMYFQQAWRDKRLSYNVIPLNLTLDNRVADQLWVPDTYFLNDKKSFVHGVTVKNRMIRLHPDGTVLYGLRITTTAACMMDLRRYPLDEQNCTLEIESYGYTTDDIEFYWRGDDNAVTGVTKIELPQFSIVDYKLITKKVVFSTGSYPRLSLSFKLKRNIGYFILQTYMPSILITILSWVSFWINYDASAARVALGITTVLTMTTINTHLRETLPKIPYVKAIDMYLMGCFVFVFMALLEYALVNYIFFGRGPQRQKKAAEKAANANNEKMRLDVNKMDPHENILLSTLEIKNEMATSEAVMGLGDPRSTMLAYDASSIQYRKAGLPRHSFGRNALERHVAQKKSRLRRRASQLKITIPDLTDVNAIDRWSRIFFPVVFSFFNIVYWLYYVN
Sequence (P18508 39-466): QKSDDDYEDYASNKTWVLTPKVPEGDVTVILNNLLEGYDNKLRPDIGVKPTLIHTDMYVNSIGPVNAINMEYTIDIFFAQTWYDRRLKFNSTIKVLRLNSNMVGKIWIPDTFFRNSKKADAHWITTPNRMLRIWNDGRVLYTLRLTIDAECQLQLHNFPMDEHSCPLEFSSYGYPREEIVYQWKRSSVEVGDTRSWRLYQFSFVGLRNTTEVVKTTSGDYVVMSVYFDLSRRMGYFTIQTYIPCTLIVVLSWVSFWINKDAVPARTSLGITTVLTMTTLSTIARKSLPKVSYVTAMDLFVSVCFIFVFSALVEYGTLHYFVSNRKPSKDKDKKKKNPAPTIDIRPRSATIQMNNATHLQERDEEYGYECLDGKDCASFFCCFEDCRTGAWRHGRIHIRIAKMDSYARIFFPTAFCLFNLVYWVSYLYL
Assay: Electrophysiology: modulation of GABA currents in Xenopus oocytes expressing recombinant GABA-A receptors
Assay type: cell-based
Conditions: 100 μM compound with GABA; α1β2γ2 in oocytes

Look up % stimulation of the GABA currents (100 μM): O=C1C=CC(C2c3ccccc3CCN2C(=O)Cc2ccccc2)O1 (racemic) [Compound 55] +33 ± 4%

Please answer likewise for O=C1C=CC(C2c3ccccc3CCN2C(=O)c2ccccc2)O1 (racemic) +14 ± 13%

Please answer likewise for O=C1C=CC(C2c3ccccc3CCN2C(=O)Cc2ccccc2)O1 (racemic) [Compound 56] +10 ± 17%

Please answer likewise for O=C1C=CC(C2c3ccccc3CCN2C(=O)Oc2ccccc2)O1 (racemic) [Compound 58] +159 ± 8%

Please answer likewise for O=C1C=C[C@@H]([C@H]2c3ccccc3CCN2C(=S)Oc2ccccc2)O1 (racemic) +265 ± 50%

Please answer likewise for O=C1CC[C@H]([C@H]2c3ccccc3CCN2S(=O)(=O)c2ccccc2)O1 (racemic) +423%

Please answer likewise for O=C1CCC(C2c3ccccc3CCN2S(=O)(=O)c2ccc(Cl)cc2)O1 (racemic) +479%

Please answer likewise for O=C1C=CC(C2c3ccccc3CCN2C(=O)OCc2ccccc2)O1 (racemic) [Compound 51] +225 ± 68%

Please answer likewise for COc1cc2c(cc1OC)[C@H]([C@@H]1C=C(C)C(=O)O1)N(C)CC2 (racemic) [Compound 30b] −10%

Each recorded value in this set is attributed to patent US6649626B1.
